- SYSTEM: ASIC1a (Homo sapiens, UniProt P78348)
- PROCEDURE DETAILS: Whole cell patch clamp in HEK293 cells transfected with hASIC1a
- Format: cell-based
- Design: expressed in transfected cells; host or cells: Xenopus laevis oocytes (nuclear microinjection of expression vector such as pcDNA3)
pIC50: −log10 of the molar value.
ENDPOINT: pIC50

COMPOUND | ENDPOINT | MEASURED VALUE
CN1CCc2c(-c3ccccc3)cc(C#N)c(N)c2C1 [Compound 203] | pIC50 | 5.12

* * *

Here the recorded IC50 is given for each entry.
- SYSTEM: ASIC1a (Homo sapiens)
- PROCEDURE DETAILS: Calcium imaging of MES-induced calcium response (FLIPR)
- Assay type: cell-based
- Set-up: host or cells: HEK293
- TEST CONDITIONS: ASIC1a expressing HEK293 cells, MES-induced calcium response; read-out: IC50 (FLIPR)
ENDPOINT: IC50

SMILES NOTATION | MEASURED VALUE
CS(=O)(=O)N1CCc2c(-c3ccc(Cl)cc3)cc3c(c2C1)NC(=O)C3=NO | > 70 µM
Cc1nc2c3c(c(-c4ccccc4)cc2c(=O)o1)CCN(C)C3 | > 70 µM
CN1CCc2c(-c3ccccc3Oc3ccccc3)cc3c(c2C1)NC(=O)/C3=N/O | < 10 µM
CN1CCc2c(-c3cccnc3)cc3c(c2C1)NC(=O)/C3=N/O | > 70 µM
CC(=O)c1cccc(-c2cc3c(c4c2CCN(C)C4)NC(=O)/C3=N/O)c1 | > 70 µM
CCOc1cccc(-c2cc3c(c4c2CCN(C)C4)NC(=O)/C3=N\O)c1 | 40 to 60 µM
CCOC(=O)N1CCc2c(Br)ccc(NCC(=O)OC)c2C1 | > 70 µM
COc1ncccc1-c1cc2c(c3c1CCN(C)C3)NC(=O)/C2=N/O | < 10 µM
COC(=O)c1cc(-c2ccccc2)c2c(c1N)CN(C)CC2 | > 70 µM
CCOC(=O)N1CCc2c(-c3ccccc3)ccc(N)c2C1 | > 70 µM
CN1CCc2c(cccc2-c2ccccc2)C1 | > 70 µM
CN1CCc2c(-c3ccc(F)c(Cl)c3)cc3c(c2C1)NC(=O)/C3=N\O | < 10 µM
CCOC(=O)CNCc1ccc(-c2ccccc2)c2c1CN(C(=O)OCC)CC2 | > 70 µM

* * *

- SYSTEM: ASIC1a (Homo sapiens)
- Sequence (P78348 1-528): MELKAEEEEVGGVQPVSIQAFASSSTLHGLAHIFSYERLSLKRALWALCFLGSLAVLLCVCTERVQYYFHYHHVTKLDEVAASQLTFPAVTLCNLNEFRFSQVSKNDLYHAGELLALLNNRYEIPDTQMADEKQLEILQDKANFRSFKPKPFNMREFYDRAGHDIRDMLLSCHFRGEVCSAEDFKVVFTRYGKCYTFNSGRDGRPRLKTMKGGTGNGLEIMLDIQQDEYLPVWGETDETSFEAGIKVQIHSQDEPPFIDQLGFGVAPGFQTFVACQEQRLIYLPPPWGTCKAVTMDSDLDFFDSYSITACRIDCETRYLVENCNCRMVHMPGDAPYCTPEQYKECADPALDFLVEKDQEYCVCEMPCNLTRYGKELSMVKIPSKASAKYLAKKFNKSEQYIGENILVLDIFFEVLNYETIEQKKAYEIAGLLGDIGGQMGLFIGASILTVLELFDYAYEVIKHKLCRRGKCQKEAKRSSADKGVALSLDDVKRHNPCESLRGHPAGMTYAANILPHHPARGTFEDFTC
- PROCEDURE DETAILS: Calcium imaging of MES-induced calcium response (FLIPR)
- Type: cell-based
- Parameters: host or cells: HEK293
- TEST CONDITIONS: ASIC1a expressing HEK293 cells, MES-induced calcium response; read-out: IC50 (FLIPR)
pIC50: −log10 of the molar value.
Here the recorded pIC50 is given for each entry.
ENDPOINT: pIC50

SMILES NOTATION | MEASURED VALUE
CCOC(=O)C(=O)Nc1ccc(-c2ccccc2)c2c1CN(C)CC2 | < 4.15
CCOC(=O)N1CCc2c(-c3ccccc3)ccc(CN)c2C1 | < 4.15
CCOC(=O)c1ccc(-c2cc3c(c4c2CCN(C)C4)NC(=O)C3=NO)cc1 | < 4.15
CN1CCc2c(-c3ccccc3)ccc(Nc3ncccc3C(=O)O)c2C1 | < 4.15
COC(=O)CC(=O)Nc1ccc(-c2ccccc2)c2c1CN(C)CC2 | < 4.15
CC(C)Oc1cccc(-c2cc3c(c4c2CCN(C)C4)NC(=O)/C3=N\O)c1 | 4.22 to 4.40
CCOC(=O)/C=N\c1ccc(-c2ccccc2)c2c1CN(C)CC2 | < 4.15
COc1cccc(-c2cc3c(c4c2CCN(C)C4)NC(=O)/C3=N\O)c1 | > 5.00
CN1CCc2c(-c3ccccc3)cc3c(c2C1)C(=O)N(N)C3=O | < 4.15

* * *

Here the recorded inhibition at 50 µM is given for each entry.
- SYSTEM: ASIC1a (Homo sapiens)
- PROCEDURE DETAILS: Two-electrode voltage clamp in Xenopus laevis oocytes (Xo), acid-induced currents
- Assay type: cell-based
- Design: expressed in transfected cells; host or cells: Xenopus laevis oocytes (nuclear microinjection of expression vector such as pcDNA3)
- TEST CONDITIONS: 50 μM, Xenopus oocytes; read-out: % inh. at 50 μM (Xo)

SMILES NOTATION | inhibition at 50 µM
C/C=C1/C(=O)Nc2c1cc(-c1ccccc1)c1c2CN(C)CC1 | < 25%
CN1CCc2c(-c3ccccc3)cc(C(=O)NOCc3ccccc3)c(N)c2C1 | < 25%
COc1ccc(F)cc1-c1cc(C#N)c(N(S(C)(=O)=O)S(C)(=O)=O)c2c1CCN(C)C2 | < 25%
CCOC(=O)CC(=O)NN=C1C(=O)Nc2c1cc(-c1ccccc1)c1c2CN(C)CC1 | < 25%
CN1CCc2c(-c3ccccc3)cc(C#N)c(NC(=O)OC(C)(C)C)c2C1 | < 25%
[H]/N=C(\N)N/N=C1/C(=O)Nc2c1cc(-c1ccccc1)c1c2CN(C)CC1 | 20 to 30%

* * *

- SYSTEM: ASIC1a (Homo sapiens)
- PROCEDURE DETAILS: Two-electrode voltage clamp in Xenopus laevis oocytes (Xo), acid-induced currents
- Format: cell-based
- Set-up: expressed in transfected cells; host or cells: Xenopus laevis oocytes (nuclear microinjection of expression vector such as pcDNA3)
pIC50: −log10 of the molar value.

SMILES NOTATION | pIC50
CN1CCc2c(-c3ccccc3)cc(C#N)c(N)c2C1 | 5.21

* * *

Here the recorded inhibition at 50 µM is given for each entry.
- SYSTEM: ASIC1a (Homo sapiens, UniProt P78348)
- Sequence (P78348 1-528): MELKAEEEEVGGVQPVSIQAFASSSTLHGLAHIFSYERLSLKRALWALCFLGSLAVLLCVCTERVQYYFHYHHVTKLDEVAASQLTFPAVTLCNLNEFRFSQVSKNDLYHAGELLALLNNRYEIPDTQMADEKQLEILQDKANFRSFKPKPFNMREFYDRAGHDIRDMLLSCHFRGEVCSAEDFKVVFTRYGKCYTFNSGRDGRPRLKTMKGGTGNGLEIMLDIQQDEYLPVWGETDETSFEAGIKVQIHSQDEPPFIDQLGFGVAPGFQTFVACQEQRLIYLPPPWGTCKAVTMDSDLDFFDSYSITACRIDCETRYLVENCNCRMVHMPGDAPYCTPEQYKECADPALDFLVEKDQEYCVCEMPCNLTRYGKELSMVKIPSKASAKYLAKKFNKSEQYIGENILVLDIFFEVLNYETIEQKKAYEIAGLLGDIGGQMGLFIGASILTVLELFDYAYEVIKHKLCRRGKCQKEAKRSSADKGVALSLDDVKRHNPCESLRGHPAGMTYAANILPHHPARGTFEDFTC
- PROCEDURE DETAILS: Two-electrode voltage clamp in Xenopus laevis oocytes (Xo), acid-induced currents
- Type: cell-based
- Set-up: expressed in transfected cells; host or cells: Xenopus laevis oocytes (nuclear microinjection of expression vector such as pcDNA3)
- TEST CONDITIONS: 50 μM, Xenopus oocytes; read-out: % inh. at 50 μM (Xo)
ENDPOINT: inhibition at 50 µM

COMPOUND | MEASURED VALUE
COc1ccc(F)cc1-c1cc(C#N)c(NC(C)=O)c2c1CCN(C)C2 [Compound 195] | 25 to 40%
CN1CCc2c(-c3ccccc3)cc3c(c2C1)NC(=O)C3O (stereo not shown) [Compound 79] | < 25%
CN1CCc2c(-c3ccccc3)cc3[nH]c(=O)[nH]c3c2C1 [Compound 99] | < 25%
CCOC(=O)N1CCc2c(-c3ccccc3)ccc(CN)c2C1 [Compound 120] | < 25%
CN1CCc2c(-c3ccccc3)cc3c(c2C1)NC(=O)/C3=N\NC(N)=O [Compound 103] | < 25%
O=[N+]([O-])c1ccc(-c2ccccc2)c2ccncc12 [Compound 135] | < 25%
CN1CCc2c(-c3ccccc3)cc3c(c2C1)NC(=O)/C3=C/c1cccc(O)c1 [Compound 85] | < 25%
CN1CCc2c(-c3ccccc3)cc3c(c2C1)NC(=O)/C3=C/c1ccccc1 [Compound 87] | < 25%
CC(C)(C)OC(=O)N1CCc2c(-c3ccccc3)ccc(C(N)=O)c2C1 [Compound 181] | < 25%
COC(=O)c1cc(-c2ccccc2)c2c(c1C(=O)OC)CN(C)CC2 [Compound 180] | < 25%
CN1CCc2c(-c3ccccc3)cc(C(N)=O)c(N)c2C1 [Compound 128] | < 25%
COc1ccc(F)cc1Oc1cc2c(c3c1CCN(C)C3)NC(=O)C2=O [Compound 13] | < 25%
CN1CCc2c(-c3ccccc3)cc(C#N)c(Br)c2C1 [Compound 175] | < 25%
CN1CCc2c(-c3ccccc3)ccc(NC(=O)OC(C)(C)C)c2C1 [Compound 129] | < 25%
CC(=O)Nc1c(N)cc(-c2ccccc2)c2c1CN(C)CC2 [Compound 156] | < 25%
COC(=O)CN(C(C)=O)c1ccc(-c2ccccc2)c2c1CN(C)CC2 [Compound 169] | < 25%
COc1ccc(F)cc1Nc1ccc([N+](=O)[O-])c2c1CCN(C)C2 [Compound 6] | < 25%
COc1ccc(F)cc1-c1cc(/C(N)=N/O)c(N)c2c1CCN(C)C2 [Compound 208] | 20 to 40%
CC(=O)Nc1c(C(N)=O)cc(-c2ccccc2)c2c1CN(C)CC2 [Compound 164] | < 25%

Every entry's value here was drawn from patent US20080004272A1.
